# protein stability index per entry
B1: SERPINB5 (parent)
chain: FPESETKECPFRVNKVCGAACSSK

- Variants of: B1
- experiment-summary: protein stability index of a GFP-peptide fusion (GPS, HEK-293T) (PSI 1-6); higher = more stable;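 note: lentivirally expressed fusions sorted by FACS into six bins by GFP to DsRed ratio, PSI derived from sequencing read proportions per bin multiplied by bin number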
- measurement-conditions: c terminus: a fixed tail appended
Number only, please.

Here's what some known entries look like.
V16S = 2.28
K24E = 2.96

Endpoint output: protein stability index of A19H . Value?
2.51

Consider the variant E3A and give its measured protein stability index.
1.42

Fill in: protein stability index of N14V is ___
2.08

Sample K7P — what was its protein stability index?
2.76

Which protein stability index is listed for E8C ?
2.23

Consider the variant shown here: S22Y What is its recorded protein stability index?
2.46

protein stability index for S4Q ?
3.83

Find the recorded protein stability index belonging to K7V and report it.
2.53

Recorded protein stability index for N14R , please?
2.17

Fill blank: measured protein stability index of the variant N14I is ____.
1.96

Entry K7D has what protein stability index?
3.22

Using the record for F1T , report its protein stability index.
2.73

Please look up its protein stability index: S23W
1.93
